From: ChEMBL document CHEMBL1139766

- Test System: Beta-3 adrenergic receptor (Homo sapiens, UniProt P13945)
- Sequence (P13945 whole entry): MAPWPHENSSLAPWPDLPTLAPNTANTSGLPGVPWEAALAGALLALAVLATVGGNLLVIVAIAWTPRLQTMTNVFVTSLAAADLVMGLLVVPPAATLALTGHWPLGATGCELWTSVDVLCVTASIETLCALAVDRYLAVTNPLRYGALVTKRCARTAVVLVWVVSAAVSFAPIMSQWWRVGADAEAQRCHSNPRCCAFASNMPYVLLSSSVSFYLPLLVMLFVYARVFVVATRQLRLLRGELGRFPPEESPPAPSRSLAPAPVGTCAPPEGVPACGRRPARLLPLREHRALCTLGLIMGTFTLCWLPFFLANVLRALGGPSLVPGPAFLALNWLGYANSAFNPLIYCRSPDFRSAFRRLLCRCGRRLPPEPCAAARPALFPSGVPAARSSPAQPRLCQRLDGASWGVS
- Procedure Text: Agonist activity at human adrenergic beta-3 receptor expressed in CHO cells assessed as cAMP production
pEC50: −log10 of the molar value.
Label false (0) if pEC50 falls below 7; label true (1) in every other case.

- Compound String: "O[C@@H](CNCCc1ccc(-c2csc(-c3cccnc3)n2)cc1)c1cccnc1"
  Label Class: "false (0)"
- Compound String: "O[C@@H](CNCCOc1ccc(-c2cnco2)cc1)c1cccnc1"
  Label Class: "false (0)"
- Compound String: "Cc1nc(-c2ccc(CCNC[C@H](O)c3cccnc3)cc2)cs1"
  Label Class: "false (0)"
- Compound String: "O[C@@H](CNCCOc1ccc(-c2csc(C(F)(F)F)n2)cc1)c1cccnc1"
  Label Class: "false (0)"
- Compound String: "Cc1ocnc1-c1ccc(OCCNC[C@H](O)c2cccnc2)cc1"
  Label Class: "false (0)"
- Compound String: "CS(=O)(=O)Nc1cc([C@@H](O)CNCCc2ccc(-c3csc(-c4ccccc4)n3)cc2)ccc1Cl"
  Label Class: "false (0)"
- Compound String: "O[C@@H](CNCCc1ccc(-c2csc(-c3ccccc3)n2)cc1)c1cccnc1"
  Label Class: "false (0)"
- Compound String: "Cc1nc(-c2ccc(OCCNC[C@H](O)c3cccnc3)cc2)c(C)o1"
  Label Class: "false (0)"
- Compound String: "O[C@@H](CNCCOc1ccc(-c2ncco2)cc1)c1cccnc1"
  Label Class: "false (0)"
- Compound String: "O[C@@H](CNCCOc1ccc(-c2cscn2)cc1)c1cccnc1"
  Label Class: "true (1)"
- Compound String: "Cc1nc(-c2ccc(OCCNC[C@H](O)c3cccnc3)cc2)co1"
  Label Class: "true (1)"
- Compound String: "O[C@@H](CNCCc1ccc(-c2csc(C(F)(F)F)n2)cc1)c1cccnc1"
  Label Class: "false (0)"
- Compound String: "O[C@@H](CNCCOc1ccc(-c2csc(-c3ccccc3)n2)cc1)c1cccnc1"
  Label Class: "false (0)"
- Compound String: "OCc1nc(-c2ccc(OCCNC[C@H](O)c3cccnc3)cc2)co1"
  Label Class: "true (1)"
- Compound String: "Cc1nc(-c2ccc(OCCNC[C@H](O)c3cccnc3)cc2)cs1"
  Label Class: "false (0)"
- Compound String: "O[C@@H](CNCCOc1ccc(-c2coc(COCc3ccccc3)n2)cc1)c1cccnc1"
  Label Class: "false (0)"
- Compound String: "O[C@@H](CNCCOc1ccc(-c2csc(C3CCCC3)n2)cc1)c1cccnc1"
  Label Class: "false (0)"
- Compound String: "O[C@@H](CNCCOc1ccc(-c2cocn2)cc1)c1cccnc1"
  Label Class: "true (1)"
- Compound String: "CCc1nc(-c2ccc(OCCNC[C@H](O)c3cccnc3)cc2)co1"
  Label Class: "true (1)"

---

Below are Ki values recorded for Beta-2 adrenergic receptor (Homo sapiens, UniProt P07550).
Value Type: Ki

- Compound String: "O[C@@H](CNCCOc1ccc(-c2cocn2)cc1)c1cccnc1"
  Value Type: "Ki"
  Result: "10 nM"
- Compound String: "O[C@@H](CNCCOc1ccc(-c2cscn2)cc1)c1cccnc1"
  Value Type: "Ki"
  Result: "10 nM"
- Compound String: "Cc1nc(-c2ccc(OCCNC[C@H](O)c3cccnc3)cc2)cs1"
  Value Type: "Ki"
  Result: "120 nM"
- Compound String: "CCc1nc(-c2ccc(OCCNC[C@H](O)c3cccnc3)cc2)co1"
  Value Type: "Ki"
  Result: "37 nM"
- Compound String: "O[C@@H](CNCCOc1ccc(-c2csc(-c3ccccc3)n2)cc1)c1cccnc1"
  Value Type: "Ki"
  Result: "500 nM"
